GI50 values for the compounds below.
Test system: UO-31
Test: NCI tumour cell line growth inhibition, 48 h
Active and inactive are the calls of the source. Cut-off read from the data, not from the text of the source: active = GI50 up to about 1.1 µM and inactive = higher.

Past entries and their recorded results:
>>> result("NNC(=O)c1nn[nH]c1SSc1[nH]nnc1C(=O)NN")
"> 100 µM (inactive)"
>>> result("CCC1(O)C(=O)OCc2c1cc1n(c2=O)Cc2cc3cc4c(cc3nc2-1)OCO4 (stereo not drawn)")
"< 0.0111 µM (active)"
>>> result("NCCn1cnc2nc(NC(=O)c3ccccc3)[nH]c(=O)c21")
"> 100 µM (inactive)"
>>> result("COC(=O)[C@@]1(C)/C(=N/NS(=O)(=O)c2ccc(C)cc2)CCC[C@@H]1C")
"> 100 µM (inactive)"
>>> result("COc1cc(OC)c2nc(C)c3c(c2c1)SCC3")
"21.9 µM (inactive)"
>>> result("CCCCCCCCCC(O)CC(=O)c1c(O)cccc1O (stereo not drawn)")
"19.3 µM (inactive)"

The compound CN(C)c1ccc(/C=C/C(=O)N[C@@H]2C(=O)N3[C@@H]2SC(C)(C)[C@@H]3C(=O)O)cc1 , tested on UO-31, showed GI50 of > 100 µM (inactive)

# value of GI50, UO-31, item CC(=O)CC1=C(OC(C)C)C2(OCCO2)C1O (stereo not drawn) = > 100 µM (inactive)

Summary: c1ccc(/N=C2\c3ccccc3CN2c2ccccn2)nc1 , UO-31, GI50 = > 100 µM (inactive)

UO-31 data for O=C(O)CCNS(=O)(=O)c1ccc2ccccc2c1 ; its GI50: > 100 µM (inactive)

# value of GI50, UO-31, item c1ccc(NC2(c3nnnn3C3CCCCC3)CCNCC2)cc1 = 11.9 µM (inactive)

Item Nc1cc2[nH]cnc2c(=O)[nH]1 [DEZAGUANINE] was tested on UO-31; the reported GI50 is 32.3 µM (inactive)

Log: UO-31, compound CCOC(=O)c1cc(C)n(CN(CCO)Cn2nc(C(=O)OCC)cc2C)n1 , GI50 = 21.5 µM (inactive)

Measured on UO-31, CC(C)(C)OC(=O)NCC(=O)OCc1ccccc1 has a documented GI50 of > 100 µM (inactive)

* * *

Tested on: 786-0
Assay: NCI tumour cell line growth inhibition, 48 h
Active and inactive are the calls of the source. Rule as the data show it: active = GI50 up to about 1.1 µM and inactive = higher. Square brackets hold non-standard residues; d marks the D form. Peptide text beside a SMILES is read from it. * marks the point of attachment. ξ: configuration not given here. ξD = NC(CC(=O)O)C(=O)O; Ac3c = NC1(C(=O)O)CC1; Boc = CC(C)(C)OC(=O)*; OtBu = CC(C)(C)O*
measured-parameter: GI50

Sample records with GI50:
>>> result("O=C1c2scc(-c3ccccc3)c2-n2cccc21")
"13.9 µM (inactive)"
>>> result("CCOC(=O)c1cc(=O)oc2c1N(C)c1ncccc1N2")
"> 100 µM (inactive)"

Okay, next one:
// COC(=O)C1(NC(=O)C(CC(=O)OC(C)(C)C)NC(=O)OC(C)(C)C)CC1 (stereo not drawn) (Boc-[ξD](OtBu)-[Ac3c]-OMe) : GI50 value = > 100 µM (inactive)

* * *

System: MDA-MB-231
Test: NCI tumour cell line growth inhibition, 48 h
Calls of active or inactive are those of the source. Rule as the data show it: active = GI50 up to about 1.1 µM and inactive = higher. *1 amine or outer side, *2 acyl side, *3 side chain or, on linkers, in order; H or OH if unused. Where a SMILES comes first, the peptide text is derived from it. Bridges are numbered along the chain shown (N, C = ends). Roman numbers before positions name the chains, in order. [ ]: non-standard residue; d: D form. Actinocin(9to1) = Cc1c2oc3c(C)ccc(C(=O)[*:1])c3nc-2c(C(=O)[*:2])c(N)c1=O; NMeV = CN[CH](C(=O)O)C(C)C; Sar = CNCC(=O)O
Give your call using only these classes: yes (1) (active), no (0) (inactive)

Known results for molecules:
>>> discrete_label("NCCOc1ccccn1")
"no (0)"
>>> discrete_label("CCOC(=O)CCC(NC(=O)c1ccc(Nc2cnc3cc(C(F)(F)F)ccc3n2)cc1)C(=O)OCC (centres undefined)")
"no (0)"
>>> discrete_label("CN(CCC(=O)O)S(=O)(=O)c1ccccc1")
"no (0)"

Fill in: this test's call for OC(c1ccc(C(F)(F)F)cc1)C(F)(F)c1nc2ccccc2o1 (centres undefined) is ___
no (0)

Which outcome was assigned to CCc1c(-c2ccccc2)[nH]c2ccccc2c1=O in this test?
no (0)

Could you check what this test reported for Cc1c2oc3c(C)ccc(C(=O)NC4C(=O)NC(Cc5ccccc5)C(=O)N5CCCC5C(=O)N(C)CC(=O)N(C)C(C(C)C)C(=O)OC4C)c3nc-2c(C(=O)NC2C(=O)NC(Cc3ccccc3)C(=O)N3CCCC3C(=O)N(C)CC(=O)N(C)C(C(C)C)C(=O)OC2C)c(N)c1=O (centres undefined) (I: TFP[Sar][NMeV] / II: TFP[Sar][NMeV]; ester I:1-I:C, II:1-II:C; linker I:N-II:N via Actinocin(9to1); configuration not given here) ?
yes (1)

Outcome? COc1ccc(/C=C2\C=Cc3ccccc32)cc1OC
no (0)

So what was the verdict on CC(C)(C)C(=O)Nc1cccc(-c2ccc[nH]2)n1 in this test?
no (0)

Lab log entry: CCOP(=O)(OCC)C1CC(n2cc(C)c(=O)[nH]c2=O)OC1CO (centres undefined) — outcome as called in the assay?
no (0)

Hi, do you know how Nc1cc2[nH]cnc2c(=O)[nH]1 [DEZAGUANINE] came out in this test?
no (0)

Could you check what this test reported for OCC(O)COCn1cc(Cn2ncc3c(SCc4ccccc4)ncnc32)nn1 (centres undefined) ?
no (0)

Status in this test for CN(C)c1ccc(-c2c(C#N)c(S)n(NS(=O)(=O)c3ccccc3)c(=O)c2C#N)cc1 ?
no (0)

I would be grateful if you could indicate the recorded call for Clc1sc(Cl)c2c1[C@@H](Cl)C[C@@H]2Cl .
no (0)

Identify the outcome logged in this assay for the molecule shown: Cc1ccc(-n2cc(-c3ccc(Cl)cc3)c3c2N=CN2N=C(c4cccs4)NC32)cc1 (centres undefined)
no (0)

Could you please tell me the result logged for CC/C=C/c1cc2c(cc1O)CCC1C2CC[C@@]2(C)C1CC[C@@H]2O (some centres undefined) in this assay?
no (0)
